Below are compounds with their IC50 as measured on PDK1 (Homo sapiens, UniProt O15530).
Sequence (O15530 51-556): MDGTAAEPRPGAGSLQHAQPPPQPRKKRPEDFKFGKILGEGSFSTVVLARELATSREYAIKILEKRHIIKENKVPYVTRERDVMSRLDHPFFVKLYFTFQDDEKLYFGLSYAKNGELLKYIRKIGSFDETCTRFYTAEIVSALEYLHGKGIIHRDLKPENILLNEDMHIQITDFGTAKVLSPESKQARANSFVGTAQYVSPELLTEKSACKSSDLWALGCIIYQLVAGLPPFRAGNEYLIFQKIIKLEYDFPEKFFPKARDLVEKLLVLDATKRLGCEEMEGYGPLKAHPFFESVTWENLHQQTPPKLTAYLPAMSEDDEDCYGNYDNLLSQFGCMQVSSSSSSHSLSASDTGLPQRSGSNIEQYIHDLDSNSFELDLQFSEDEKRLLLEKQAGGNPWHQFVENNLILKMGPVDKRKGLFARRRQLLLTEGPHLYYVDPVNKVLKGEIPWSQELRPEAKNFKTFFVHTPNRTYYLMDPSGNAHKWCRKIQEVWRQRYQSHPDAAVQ
measurement name: IC50

compound=Nc1nc(CCN2CCOCC2)cc(-c2c[nH]c3ncccc23)n1 study_system="PDK1 (Homo sapiens, UniProt O15530)" measurement="1000 to 10000 nM"
compound="CC(C)n1cc(-c2cnc3[nH]cc(-c4cc(C(O)c5ccccc5)nc(N)n4)c3c2)cn1 (centres unmarked)" study_system="PDK1 (Homo sapiens, UniProt O15530)" measurement="1000 to 10000 nM"
compound=CC(C)n1cc(-c2cnc3[nH]cc(-c4cc(C5(O)CCN(C(=O)OCc6ccccc6)CC5)nc(N)n4)c3c2)cn1 study_system="PDK1 (Homo sapiens, UniProt O15530)" measurement="10 to 1000 nM"
compound=CCc1cc(-c2c[nH]c3ncc(-c4cnn(CC(=O)N5CCOCC5)c4)cc23)nc(N)n1 study_system="PDK1 (Homo sapiens, UniProt O15530)" measurement="10 to 1000 nM"
compound=CCc1cc(-c2c[nH]c3ncc(-c4cnn(CC(=O)N5CCCCC5)c4)cc23)nc(NC)n1 study_system="PDK1 (Homo sapiens, UniProt O15530)" measurement="10 to 1000 nM"
compound=CCc1cc(-c2c[nH]c3ncc(-c4cnn(CC(=O)N5CCCc6ccccc65)c4)cc23)nc(N)n1 study_system="PDK1 (Homo sapiens, UniProt O15530)" measurement="10 to 1000 nM"
compound=CCc1cc(-c2c[nH]c3ncc(-c4cnn(CCN5CCCC5)c4)cc23)nc(N)n1 study_system="PDK1 (Homo sapiens, UniProt O15530)" measurement="10 to 1000 nM"
compound=CCCCc1cc(-c2c[nH]c3ncc(-c4cnn(CCO)c4)cc23)nc(NC)n1 study_system="PDK1 (Homo sapiens, UniProt O15530)" measurement="10 to 1000 nM"
compound=CCCCc1cc(-c2c[nH]c3ncc(-c4cnn(C5CCN(C)CC5)c4)cc23)nc(NC)n1 study_system="PDK1 (Homo sapiens, UniProt O15530)" measurement="10 to 1000 nM"
compound=CN(C)CCn1cc(-c2cnc3[nH]cc(-c4cc(CCN5CCN(C)CC5)nc(N)n4)c3c2)cn1 study_system="PDK1 (Homo sapiens, UniProt O15530)" measurement="10 to 1000 nM"
compound=CCc1cc(-c2c[nH]c3ncc(-c4cnn(C(C)C)c4)cc23)nc(OC)n1 study_system="PDK1 (Homo sapiens, UniProt O15530)" measurement="10 to 1000 nM"
compound=COc1nc(Cc2ccccc2)cc(-c2c[nH]c3ncc(-c4cnn(C(C)C)c4)cc23)n1 study_system="PDK1 (Homo sapiens, UniProt O15530)" measurement="1000 to 10000 nM"
compound=CCc1cc(-c2c[nH]c3ncc(-c4cnn(CC(=O)NC5CCN(C)CC5)c4)cc23)nc(N)n1 study_system="PDK1 (Homo sapiens, UniProt O15530)" measurement="10 to 1000 nM"
compound=CCc1cc(-c2c[nH]c3ncc(-c4ccc(Cl)s4)cc23)nc(N)n1 study_system="PDK1 (Homo sapiens, UniProt O15530)" measurement="1000 to 10000 nM"
compound=CCc1cc(-c2c[nH]c3ncc(-c4cnn(C5CCN(S(C)(=O)=O)CC5)c4)cc23)nc(N)n1 study_system="PDK1 (Homo sapiens, UniProt O15530)" measurement="10 to 1000 nM"
compound=CCc1cc(-c2c[nH]c3ncc(-c4cccc(C(=O)NCCN(C)C)c4)cc23)nc(N)n1 study_system="PDK1 (Homo sapiens, UniProt O15530)" measurement="10 to 1000 nM"
compound="CC(C)CC(O)c1cc(-c2c[nH]c3ncc(-c4cnn(C(C)C)c4)cc23)nc(N)n1 (centres unmarked)" study_system="PDK1 (Homo sapiens, UniProt O15530)" measurement="10 to 1000 nM"

---

system: PDK1 kinase activity in PC3 cells (phospho-T308-PKB); test: Cellular testing of PDK1 kinase inhibitors in PC3 cells (Luminex, phospho-T308-PKB); format: cell-based; conditions: Homo sapiens, PC-3, 0.5 h, 30 min with test substance, serum-free, phospho-T308-PKB by Luminex, read-out: IC50 [PC3 P-PKB Thr308]
Measured IC50 of individual entries
measurement name: IC50

compound="CCCCc1cc(-c2c[nH]c3ncc(-c4cnn(C5CCN(C)CC5)c4)cc23)nc(N)n1 [Compound A89]" measurement_name=IC50 measurement="1 to 10 µM"
compound="CC(C)n1cc(-c2cnc3[nH]cc(-c4cc(C5(O)CCN(CCc6ccc(F)cc6)CC5)nc(N)n4)c3c2)cn1 [Compound A116]" measurement_name=IC50 measurement="10 to 20 µM"
compound="CCc1cc(-c2c[nH]c3ncc(-c4cnn(C5CCN(C)CC5)c4)cc23)nc(N)n1 [Compound A5]" measurement_name=IC50 measurement="1 to 10 µM"
compound="CCc1cc(-c2c[nH]c3ncc(-c4cnn(CC(=O)NC)c4)cc23)nc(N)n1 [Compound A51]" measurement_name=IC50 measurement="10 to 20 µM"
compound="CC(=O)NCCCc1cc(-c2c[nH]c3ncc(-c4cnn(C(C)C)c4)cc23)nc(N)n1 [Compound A97]" measurement_name=IC50 measurement="10 to 20 µM"
compound="CCc1cc(-c2c[nH]c3ncc(-c4ccc(CN)cc4)cc23)nc(N)n1 [Compound A81]" measurement_name=IC50 measurement="1 to 10 µM"
compound="CC(C)n1cc(-c2cnc3[nH]cc(-c4cc(CCN5CCN(C)CC5)nc(N)n4)c3c2)cn1 [Compound A43]" measurement_name=IC50 measurement="10 to 20 µM"
compound="CCc1cc(-c2c[nH]c3ncc(-c4cnn(CCNC)c4)cc23)nc(N)n1 [Compound A3]" measurement_name=IC50 measurement="10 to 20 µM"
compound="CCc1cc(-c2c[nH]c3ncc(-c4cccc(C(=O)NCCN(C)C)c4)cc23)nc(N)n1 [Compound A11]" measurement_name=IC50 measurement="10 to 20 µM"
compound="CCc1cc(-c2c[nH]c3ncc(-c4cnn(CC(=O)NC5CCN(C)CC5)c4)cc23)nc(N)n1 [Compound A30]" measurement_name=IC50 measurement="10 to 20 µM"
compound="CCCC(O)c1cc(-c2c[nH]c3ncc(-c4cnn(C(C)C)c4)cc23)nc(N)n1 (stereo not shown) [Compound A35]" measurement_name=IC50 measurement="1 to 10 µM"
compound="CCc1cc(-c2c[nH]c3ncc(-c4cnn(CCCN(C)C)c4)cc23)nc(N)n1 [Compound A4]" measurement_name=IC50 measurement="1 to 10 µM"
compound="CCc1cc(-c2c[nH]c3ncc(-c4cnn(CC(=O)N5CCN(C)CC5)c4)cc23)nc(N)n1 [Compound A29]" measurement_name=IC50 measurement="10 to 20 µM"
compound="CCCC(O)c1cc(-c2c[nH]c3ncccc23)nc(N)n1 (stereo not shown) [Compound A48]" measurement_name=IC50 measurement="10 to 20 µM"
compound="CCCCc1cc(-c2c[nH]c3ncc(-c4cnn(C5CCN(C(C)=O)CC5)c4)cc23)nc(N)n1 [Compound A86]" measurement_name=IC50 measurement="1 to 10 µM"
compound="CC(C)n1cc(-c2cnc3[nH]cc(-c4cc([C@](C)(O)c5ccccc5)nc(N)n4)c3c2)cn1 [Compound A123]" measurement_name=IC50 measurement="0.01 to 1 µM"
compound="CN(C)CCn1cc(-c2cnc3[nH]cc(-c4cc(CCN5CCN(C)CC5)nc(N)n4)c3c2)cn1 [Compound A41]" measurement_name=IC50 measurement="10 to 20 µM"
compound="CCc1cc(-c2c[nH]c3ncc(-c4cnn(Cc5ccc(F)c(F)c5)c4)cc23)nc(N)n1 [Compound A99]" measurement_name=IC50 measurement="10 to 20 µM"
compound="CCc1cc(-c2c[nH]c3ncc(-c4cnn(CCN5CCOCC5)c4)cc23)nc(N)n1 [Compound A8]" measurement_name=IC50 measurement="1 to 10 µM"
compound="CCc1cc(-c2c[nH]c3ncc(-c4cnn(CCN(C)C)c4)cc23)nc(N)n1 [Compound A1]" measurement_name=IC50 measurement="10 to 20 µM"
compound="CC(C)C(O)c1cc(-c2c[nH]c3ncc(-c4cnn(C(C)C)c4)cc23)nc(N)n1 (stereo not shown) [Compound A102]" measurement_name=IC50 measurement="1 to 10 µM"
compound="CCCCc1cc(-c2c[nH]c3ncc(-c4cnn(CCN(C)C)c4)cc23)nc(N)n1 [Compound A85]" measurement_name=IC50 measurement="1 to 10 µM"
compound="CC(C)N1CCC(O)(c2cc(-c3c[nH]c4ncc(-c5cnn(C(C)C)c5)cc34)nc(N)n2)CC1 [Compound A114]" measurement_name=IC50 measurement="10 to 20 µM"
compound="CC(C)n1cc(-c2cnc3[nH]cc(-c4cc([C@@](C)(O)c5ccccc5)nc(N)n4)c3c2)cn1 [Compound A124]" measurement_name=IC50 measurement="0.01 to 1 µM"
compound="CCC[C@H](O)c1cc(-c2c[nH]c3ncc(-c4cnn(C(C)C)c4)cc23)nc(N)n1 [Compound A90]" measurement_name=IC50 measurement="1 to 10 µM"
